Data credit: patent US9067911B2

Some molecules, each annotated with its measured log10 of IC50.
target: UniProtKB P28571; experiment: Glycine uptake inhibition assay (mGlyT-1b); settings: [3H]-glycine uptake, Flp-in-CHO cells stably transfected with mGlyT1b cDNA, 20 min preincubation at 22° C.
Counter-ions that a name gives are not always drawn.
Lab note - IC50 converted to log10 from values in nM.

Req: GET /values?readout=log10 of IC50&system=UniProtKB P28571&item= COc1cc(C(F)(F)F)cc(SC)c1C(=O)N[C@@]1(c2ccccc2)C[C@H](C)CN(C)C1 (mixture of isomers) [Example 85, hydrochloride]
Resp: 1.50

Req: Lab request: please report log10 of IC50 under test system UniProtKB P28571 for COc1cc(C(F)(F)F)cc(SC)c1C(=O)N[C@]1(c2ccccc2)C[C@@H](C)CN(C)C1 (racemic)
Resp: 1.22

Req: Write down the reported log10 of IC50 of CO[C@@H]1CN(C)C[C@](NC(=O)c2ccc(C(F)(F)F)cc2C2CC2)(c2ccccc2)C1 (racemic) [Example 76] , test system: UniProtKB P28571.
Resp: 1.97

Req: Observed log10 of IC50 on UniProtKB P28571 for COc1cc(C(F)(F)F)cc(SC)c1C(=O)NC1(c2ccccc2)CCCN(C(C)(C)C)C1 (racemic) , please.
Resp: 2.24

Req: Form field - read-out: log10 of IC50; system: UniProtKB P28571; submitted item: COc1cc(C(F)(F)F)cc(SC)c1C(=O)N[C@@]1(c2ccccc2)C[C@H](OC)CN(C)C1 (stereo in doubt) [Example 108]
Resp: 1.61

Req: I'm curious: which log10 of IC50 was measured for COc1cc(C(F)(F)F)cc(SC)c1C(=O)NC1(c2ccccc2F)CCCN(C)C1 (racemic) [Example 68] tested on UniProtKB P28571?
Resp: 2.24

Req: Return log10 of IC50 measured with UniProtKB P28571 given this molecule: CN1CC(C)(C)CC(NC(=O)c2ccc(C(F)(F)F)cc2C2CC2)(c2ccccc2)C1 (racemic)
Resp: 1.48

----------
Molecular target: mGlyT-1b (Mus musculus)
Sequence (P28571 1-651 isoform P28571-2): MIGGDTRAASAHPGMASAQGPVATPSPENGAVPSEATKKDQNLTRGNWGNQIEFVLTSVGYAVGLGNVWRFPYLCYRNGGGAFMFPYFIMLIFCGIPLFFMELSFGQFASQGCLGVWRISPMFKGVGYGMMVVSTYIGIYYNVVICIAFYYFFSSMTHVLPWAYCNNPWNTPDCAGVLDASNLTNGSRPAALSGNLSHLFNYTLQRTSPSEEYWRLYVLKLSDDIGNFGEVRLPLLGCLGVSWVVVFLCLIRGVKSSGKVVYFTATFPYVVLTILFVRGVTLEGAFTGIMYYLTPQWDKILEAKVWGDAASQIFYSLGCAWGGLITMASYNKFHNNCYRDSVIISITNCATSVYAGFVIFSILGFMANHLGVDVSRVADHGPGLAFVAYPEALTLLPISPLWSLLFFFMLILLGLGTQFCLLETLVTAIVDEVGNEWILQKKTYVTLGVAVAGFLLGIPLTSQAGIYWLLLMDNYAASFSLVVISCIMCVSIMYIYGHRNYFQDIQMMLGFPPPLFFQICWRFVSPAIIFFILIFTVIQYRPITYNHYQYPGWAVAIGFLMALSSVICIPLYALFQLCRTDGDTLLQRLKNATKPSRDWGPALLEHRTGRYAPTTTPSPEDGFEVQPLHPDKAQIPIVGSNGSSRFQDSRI
Test: Glycine uptake inhibition assay (mGlyT-1b)
Settings: [3H]-glycine uptake, Flp-in-CHO cells stably transfected with mGlyT1b cDNA, 20 min preincubation at 22° C.
measured_quantity: pIC50
Please treat pIC50 as minus the base-10 logarithm of the molar concentration.

Completed entries (count: 3):
molecule	pIC50
COc1cc(C(F)(F)F)cc(SC)c1C(=O)NC1(c2ccc(F)cc2)CCCN(C)C1 (racemic)	7.58
COc1cc(C(F)(F)F)cc(SC)c1C(=O)NC1(c2ccccc2)CN(C)CC(C)(C)C1 (single isomer, unassigned) [Example 116]	7.45
COc1cc(C(F)(F)F)cc(OC)c1C(=O)N[C@@]1(c2ccccc2)CCCN(C)C1 (racemic)	6.90

Next molecule, please.
Req: Could you tell me which pIC50 is on file for COc1cc(C(F)(F)F)cc(SC)c1C(=O)NC1(c2ccc(Cl)cc2)CCCN(C)C1 (racemic) ?
Resp: 7.56

----------
Target: mGlyT-1b (Mus musculus)
Sequence (P28571 1-651 isoform P28571-2): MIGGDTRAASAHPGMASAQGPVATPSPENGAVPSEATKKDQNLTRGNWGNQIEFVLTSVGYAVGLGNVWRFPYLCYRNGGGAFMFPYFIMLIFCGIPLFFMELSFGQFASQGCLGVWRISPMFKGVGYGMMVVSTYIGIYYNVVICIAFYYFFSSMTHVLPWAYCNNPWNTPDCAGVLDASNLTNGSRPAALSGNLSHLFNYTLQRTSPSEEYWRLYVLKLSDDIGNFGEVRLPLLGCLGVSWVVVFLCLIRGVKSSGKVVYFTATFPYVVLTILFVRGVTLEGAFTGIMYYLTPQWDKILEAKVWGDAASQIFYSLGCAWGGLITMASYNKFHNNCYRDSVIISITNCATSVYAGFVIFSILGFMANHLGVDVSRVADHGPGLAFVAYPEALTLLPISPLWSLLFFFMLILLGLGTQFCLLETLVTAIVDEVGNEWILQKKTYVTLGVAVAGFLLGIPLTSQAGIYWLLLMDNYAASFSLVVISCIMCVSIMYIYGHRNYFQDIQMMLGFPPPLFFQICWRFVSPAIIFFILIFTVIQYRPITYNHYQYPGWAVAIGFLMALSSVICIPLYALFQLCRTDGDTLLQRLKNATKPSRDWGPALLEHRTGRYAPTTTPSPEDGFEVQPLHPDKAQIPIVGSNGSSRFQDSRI
Assay: Glycine uptake inhibition assay (mGlyT-1b)
Settings: [3H]-glycine uptake, Flp-in-CHO cells stably transfected with mGlyT1b cDNA, 20 min preincubation at 22° C.
Some compounds, each annotated with its measured IC50.

Req: IC50 for COc1cc(C(F)(F)F)cc(C(F)(F)F)c1C(=O)NC1(c2ccc(F)cc2)CCCN(C)C1 (racemic) [Example 26] ?
Resp: 59.3 nM

----------
Biological target: mGlyT-1b (Mus musculus, UniProt P28571)
Sequence (P28571 1-651 isoform P28571-2): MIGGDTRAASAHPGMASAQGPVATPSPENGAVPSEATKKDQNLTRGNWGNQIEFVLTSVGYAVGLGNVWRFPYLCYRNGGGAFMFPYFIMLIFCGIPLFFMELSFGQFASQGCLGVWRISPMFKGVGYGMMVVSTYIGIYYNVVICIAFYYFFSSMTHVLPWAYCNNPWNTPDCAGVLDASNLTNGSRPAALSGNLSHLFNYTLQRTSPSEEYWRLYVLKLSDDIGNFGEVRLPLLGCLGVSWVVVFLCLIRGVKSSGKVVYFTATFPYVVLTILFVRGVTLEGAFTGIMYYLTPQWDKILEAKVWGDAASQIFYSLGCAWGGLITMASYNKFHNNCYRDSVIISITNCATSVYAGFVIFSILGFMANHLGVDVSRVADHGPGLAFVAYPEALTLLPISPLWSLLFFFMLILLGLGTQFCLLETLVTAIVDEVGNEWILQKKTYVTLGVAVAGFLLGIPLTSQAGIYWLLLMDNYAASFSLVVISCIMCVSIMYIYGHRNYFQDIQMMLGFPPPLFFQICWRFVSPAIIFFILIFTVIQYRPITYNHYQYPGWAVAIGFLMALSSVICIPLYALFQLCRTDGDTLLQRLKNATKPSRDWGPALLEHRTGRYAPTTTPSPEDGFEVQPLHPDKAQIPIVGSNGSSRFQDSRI
Test: Glycine uptake inhibition assay (mGlyT-1b)
Conditions: [3H]-glycine uptake, Flp-in-CHO cells stably transfected with mGlyT1b cDNA, 20 min preincubation at 22° C.
pIC50: −log10 of the molar value. Structures can show the parent of a compound that is named as a salt.
Kindly return T if reported pIC50 is no lower than 7; return F if it is lower.

These solved cases illustrate the format of a correct answer.
compound	target	qualitative_label
COc1cc(C(F)(F)F)cc(SC)c1C(=O)N[C@@]1(c2ccccc2)CC[C@@H](C)N(C)C1 (single isomer, unassigned) [Example 119]	mGlyT-1b (Mus musculus, UniProt P28571)	T
CCc1cc(C(F)(F)F)ccc1C(=O)N[C@@]1(c2ccccc2)C[C@H](OC)CN(C)C1 (racemic) [Example 125]	mGlyT-1b (Mus musculus, UniProt P28571)	F
COc1cc(C(F)(F)F)cc(SC)c1C(=O)NC1(c2ccccc2)CN(C)CC(C)(C)C1 (racemic) [Example 99, hydrochloride]	mGlyT-1b (Mus musculus, UniProt P28571)	T
COc1cc(C(F)(F)F)cc(SC)c1C(=O)NC1(c2ccc(F)c(Cl)c2)CCCN(C)C1 (racemic) [Example 94]	mGlyT-1b (Mus musculus, UniProt P28571)	T
COc1cc(C(F)(F)F)cc(SC)c1C(=O)N[C@]1(c2ccccc2)CCCN(C)C1 (stereo in doubt) [Example 37, hydrochloride]	mGlyT-1b (Mus musculus, UniProt P28571)	F

Req: Decide: pIC50 of COc1ccc(C2(NC(=O)c3c(OC)cc(C(F)(F)F)cc3SC)CCCN(C)C2)cc1 (racemic) [Example 46] >= 7?
Resp: F

Req: Check this compound for pIC50 at or above 7: Cl.[2H]C([2H])([2H])N1CCC[C@@](NC(=O)c2c(OC)cc(C(F)(F)F)cc2SC)(c2ccccc2)C1 (single isomer, unassigned) [Example 63]
Resp: T

Req: Can COc1cc(C(F)(F)F)cc(SC)c1C(=O)N[C@@]1(c2ccccc2)C[C@H](OC)CN(C)C1 (stereo in doubt) [Example 75] be said to have pIC50 at or above 7?
Resp: T

Req: Item COc1cc(C(F)(F)F)cc(SC)c1C(=O)NC1(c2ccc(F)cn2)CCCN(C)C1 (racemic) [Example 47] with pIC50 of 7 or above?
Resp: F
